Reported PBM binding z-score values for a set of sequences
System: PPARg DBDmut IVT, anti-PPARg (DBD mutation: PPARg1 K132A/R137A, NR concentration 270 nM)
Assay: PBM binding z-score (relative to random genomic background probes); higher = stronger binding; sequences stand for … in GC…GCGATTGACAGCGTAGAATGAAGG

{"biopolymerSequence": "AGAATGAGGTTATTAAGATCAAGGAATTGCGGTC", "PBM binding z-score": 0.466}
{"biopolymerSequence": "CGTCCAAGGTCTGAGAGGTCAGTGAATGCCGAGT", "PBM binding z-score": -1.57}
{"biopolymerSequence": "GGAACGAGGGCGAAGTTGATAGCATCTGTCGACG", "PBM binding z-score": -0.848}
{"biopolymerSequence": "CCTTACGCGTCACTCCAGGTTATAGCATCGGAGT", "PBM binding z-score": 1}
{"biopolymerSequence": "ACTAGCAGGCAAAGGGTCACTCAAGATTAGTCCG", "PBM binding z-score": -1.05}
{"biopolymerSequence": "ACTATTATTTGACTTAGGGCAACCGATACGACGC", "PBM binding z-score": 2.46}
{"biopolymerSequence": "CTCGAATGGTCGTGCTCAGGTGAGTATACCAAAC", "PBM binding z-score": 0.0362}
{"biopolymerSequence": "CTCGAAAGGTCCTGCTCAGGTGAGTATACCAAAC", "PBM binding z-score": -0.54}
{"biopolymerSequence": "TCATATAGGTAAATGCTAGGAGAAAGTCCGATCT", "PBM binding z-score": 1.09}
{"biopolymerSequence": "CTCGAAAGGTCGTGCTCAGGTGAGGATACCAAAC", "PBM binding z-score": 0.176}
{"biopolymerSequence": "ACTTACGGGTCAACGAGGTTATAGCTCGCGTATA", "PBM binding z-score": 0.353}
{"biopolymerSequence": "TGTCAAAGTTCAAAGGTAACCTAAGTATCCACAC", "PBM binding z-score": 0.289}

* * *

Tested on: PPARg homodimer (NR concentration 180 nM)
Assay: PBM binding z-score (relative to random genomic background probes); higher = stronger binding; sequences stand for … in GC…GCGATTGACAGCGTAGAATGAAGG
observationType: PBM binding z-score

{"biopolymerSequence": "CGTCCAAGGTCAATGCTAGGTCCGTGAAAGCATT", "observationType": "PBM binding z-score", "observedValue": 3.68}
{"biopolymerSequence": "TCATATAGGTAAAAGTGAAAGTCGAACGATATGA", "observationType": "PBM binding z-score", "observedValue": 0.424}
{"biopolymerSequence": "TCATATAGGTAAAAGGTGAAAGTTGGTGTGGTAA", "observationType": "PBM binding z-score", "observedValue": 2.39}
{"biopolymerSequence": "ATCGAAAGGTCTAGGTGAGTATAGAGAAAGGGAA", "observationType": "PBM binding z-score", "observedValue": 0.408}
{"biopolymerSequence": "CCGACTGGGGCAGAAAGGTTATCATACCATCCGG", "observationType": "PBM binding z-score", "observedValue": 0.664}
{"biopolymerSequence": "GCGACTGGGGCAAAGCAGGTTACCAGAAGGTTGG", "observationType": "PBM binding z-score", "observedValue": 0.00244}
{"biopolymerSequence": "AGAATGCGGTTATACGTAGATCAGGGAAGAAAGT", "observationType": "PBM binding z-score", "observedValue": -0.759}
{"biopolymerSequence": "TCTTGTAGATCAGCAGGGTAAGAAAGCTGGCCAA", "observationType": "PBM binding z-score", "observedValue": -0.287}
{"biopolymerSequence": "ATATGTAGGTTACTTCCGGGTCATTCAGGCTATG", "observationType": "PBM binding z-score", "observedValue": 2.39}
{"biopolymerSequence": "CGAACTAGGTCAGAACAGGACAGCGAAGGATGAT", "observationType": "PBM binding z-score", "observedValue": 1.18}
{"biopolymerSequence": "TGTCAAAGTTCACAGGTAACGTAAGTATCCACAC", "observationType": "PBM binding z-score", "observedValue": 2.45}
{"biopolymerSequence": "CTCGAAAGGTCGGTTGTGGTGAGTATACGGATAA", "observationType": "PBM binding z-score", "observedValue": 1.3}
{"biopolymerSequence": "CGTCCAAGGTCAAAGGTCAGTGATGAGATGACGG", "observationType": "PBM binding z-score", "observedValue": 3.97}
{"biopolymerSequence": "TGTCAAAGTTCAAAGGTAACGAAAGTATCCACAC", "observationType": "PBM binding z-score", "observedValue": 3.32}
{"biopolymerSequence": "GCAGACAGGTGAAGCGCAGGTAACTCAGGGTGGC", "observationType": "PBM binding z-score", "observedValue": -0.277}
{"biopolymerSequence": "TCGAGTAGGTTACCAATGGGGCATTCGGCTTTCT", "observationType": "PBM binding z-score", "observedValue": 0.209}
{"biopolymerSequence": "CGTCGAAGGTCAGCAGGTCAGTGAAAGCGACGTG", "observationType": "PBM binding z-score", "observedValue": 4.2}
{"biopolymerSequence": "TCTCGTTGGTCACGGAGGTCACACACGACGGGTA", "observationType": "PBM binding z-score", "observedValue": 2.82}
{"biopolymerSequence": "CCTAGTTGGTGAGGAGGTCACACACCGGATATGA", "observationType": "PBM binding z-score", "observedValue": 3.46}
{"biopolymerSequence": "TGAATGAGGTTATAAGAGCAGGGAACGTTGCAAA", "observationType": "PBM binding z-score", "observedValue": 0.672}
{"biopolymerSequence": "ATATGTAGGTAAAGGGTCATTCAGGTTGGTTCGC", "observationType": "PBM binding z-score", "observedValue": 3.33}
{"biopolymerSequence": "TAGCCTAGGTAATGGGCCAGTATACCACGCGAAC", "observationType": "PBM binding z-score", "observedValue": -0.148}
{"biopolymerSequence": "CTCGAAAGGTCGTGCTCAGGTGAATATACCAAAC", "observationType": "PBM binding z-score", "observedValue": 1.34}
{"biopolymerSequence": "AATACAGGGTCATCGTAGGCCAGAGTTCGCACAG", "observationType": "PBM binding z-score", "observedValue": 3.53}
{"biopolymerSequence": "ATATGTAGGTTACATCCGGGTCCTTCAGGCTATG", "observationType": "PBM binding z-score", "observedValue": 0.864}
{"biopolymerSequence": "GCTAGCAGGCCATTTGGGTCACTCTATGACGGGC", "observationType": "PBM binding z-score", "observedValue": -0.345}

* * *

Test system: RARg homodimer (NR concentration 270 nM)
Assay: PBM binding z-score (relative to random genomic background probes); higher = stronger binding; sequences stand for … in GC…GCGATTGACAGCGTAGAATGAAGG
Reported PBM binding z-score values for a set of sequences
observationType: PBM binding z-score

{"biopolymerSequence": "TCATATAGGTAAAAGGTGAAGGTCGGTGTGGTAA", "measuredOn": "RARg homodimer (NR concentration 270 nM)", "observationType": "PBM binding z-score", "observedValue": 1.23}
{"biopolymerSequence": "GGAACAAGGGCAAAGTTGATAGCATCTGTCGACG", "measuredOn": "RARg homodimer (NR concentration 270 nM)", "observationType": "PBM binding z-score", "observedValue": 1.83}
{"biopolymerSequence": "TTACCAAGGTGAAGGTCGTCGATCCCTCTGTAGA", "measuredOn": "RARg homodimer (NR concentration 270 nM)", "observationType": "PBM binding z-score", "observedValue": 1.7}
{"biopolymerSequence": "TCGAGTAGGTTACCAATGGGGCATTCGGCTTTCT", "measuredOn": "RARg homodimer (NR concentration 270 nM)", "observationType": "PBM binding z-score", "observedValue": 0.0889}
{"biopolymerSequence": "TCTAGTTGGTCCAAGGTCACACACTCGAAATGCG", "measuredOn": "RARg homodimer (NR concentration 270 nM)", "observationType": "PBM binding z-score", "observedValue": 3.8}
{"biopolymerSequence": "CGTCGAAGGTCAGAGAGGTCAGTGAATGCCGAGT", "measuredOn": "RARg homodimer (NR concentration 270 nM)", "observationType": "PBM binding z-score", "observedValue": 7.29}
{"biopolymerSequence": "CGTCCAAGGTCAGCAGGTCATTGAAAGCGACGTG", "measuredOn": "RARg homodimer (NR concentration 270 nM)", "observationType": "PBM binding z-score", "observedValue": 6.69}
{"biopolymerSequence": "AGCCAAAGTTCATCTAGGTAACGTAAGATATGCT", "measuredOn": "RARg homodimer (NR concentration 270 nM)", "observationType": "PBM binding z-score", "observedValue": 5.88}
{"biopolymerSequence": "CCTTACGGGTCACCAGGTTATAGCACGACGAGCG", "measuredOn": "RARg homodimer (NR concentration 270 nM)", "observationType": "PBM binding z-score", "observedValue": 5.33}
{"biopolymerSequence": "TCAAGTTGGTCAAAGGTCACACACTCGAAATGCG", "measuredOn": "RARg homodimer (NR concentration 270 nM)", "observationType": "PBM binding z-score", "observedValue": 6.47}
{"biopolymerSequence": "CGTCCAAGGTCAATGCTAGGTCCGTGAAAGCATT", "measuredOn": "RARg homodimer (NR concentration 270 nM)", "observationType": "PBM binding z-score", "observedValue": 5.7}
{"biopolymerSequence": "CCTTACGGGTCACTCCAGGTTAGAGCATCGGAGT", "measuredOn": "RARg homodimer (NR concentration 270 nM)", "observationType": "PBM binding z-score", "observedValue": 4.37}
